Here the recorded relative viability is given for each entry.
- Tested on: NCI-H1666
- Measurement Protocol: relative viability (nuclei count vs DMSO), 5 days (fraction); higher = more cells survive
- Measurement Conditions: first compound 0.04 µM

| Molecule | relative viability |
| --- | --- |
| O=C(O)c1ccc(-c2c[nH]c3ncc(-c4ccccc4)cc23)cc1C1CCCC1 + CS(=O)(=O)N1CCN(Cc2cc3nc(-c4cccc5[nH]ncc45)nc(N4CCOCC4)c3s2)CC1 [Pictilisib] (partner 1 µM) | 0.406 |
| O=C(O)c1ccc(-c2c[nH]c3ncc(-c4ccccc4)cc23)cc1C1CCCC1 + Nc1ncn([C@H]2C[C@H](O)[C@@H](CO)O2)c(=O)n1 [Decitabine] (partner 2 µM) | 0.689 |
| O=C(O)c1ccc(-c2c[nH]c3ncc(-c4ccccc4)cc23)cc1C1CCCC1 + O=C(CCCCCCC(=O)Nc1ccccc1)NO [Vorinostat] (partner 1 µM) | 1.04 |
| O=C(O)c1ccc(-c2c[nH]c3ncc(-c4ccccc4)cc23)cc1C1CCCC1 + CC(C)C[C@H](NC(=O)[C@H](Cc1ccccc1)NC(=O)c1cnccn1)B(O)O [Bortezomib] (partner 0.002 µM) | 0.86 |
| O=C(O)c1ccc(-c2c[nH]c3ncc(-c4ccccc4)cc23)cc1C1CCCC1 + O=C(c1cc(Cc2n[nH]c(=O)c3ccccc23)ccc1F)N1CCN(C(=O)C2CC2)CC1 [Olaparib] (partner 8 µM) | 0.781 |
